Reference source: patent US20250059174A1

pEC50 values for the molecules below.
System: M-07e cells
protocol_notes: M-07e cellular assay (SCF-mediated cell proliferation)
Type: cell-based
condition_label: Homo sapiens, 72 hours, CellTiter Glo
pEC50: −log10 of the molar value.

{"molecule": "Cc1ccc(-c2noc([C@H]3C[C@@H]3F)n2)cc1NC(=O)c1cnn2ccc(N3CC4CCC3CN4C(=O)OC(C)(C)C)cc12 (stereo partly drawn)", "pEC50": "6.00 to 7.00"}

Now for a further molecule.
// output pEC50; input [2H]C([2H])([2H])c1ccc(-c2noc([C@H]3C[C@@H]3C(F)F)n2)cc1NC(=O)c1cnn2ccc(N3CC4(COC4)C3)cc12 ; system M-07e cells > 7.00
